Molecular target: Activated human C1s (Homo sapiens)
Assay: In vitro inhibition of C1s (Ki determination, C1s-catalyzed hydrolysis of Z-Gly-Arg-S-Bzl, DTNB readout)
Details: substrate Z-Gly-Arg-S-Bzl 45 μM, DTNB 200 μM, C1s 2.3 nM, pH 7.5, 37° C., absorbance at 405 nm
pKi: −log10 of the molar value. Structures can show the parent of a compound that is named as a salt.
experimental readout: pKi

Some compounds with known pKi results, for comparison:
# query: pKi of entry COc1ccc(-c2cccc(S(=O)(=O)c3cc(C(=N)N)sc3SC)c2)cc1OC [Example 43]
7.64 to 8.22

Would you kindly share the measured pKi for CSc1sc(C(=N)N)cc1S(=O)(=O)c1cccc(-c2c(C)cccc2NC(=O)CSCC(N)=O)c1 [Example 246, trifluoroacetate] ?
7.64 to 8.22

// pKi lookup, key: CSc1sc(C(=N)N)cc1S(=O)(=O)c1cccc(-c2cc(C)cc(C)c2)c1 [Example 75]
7.64 to 8.22

Next:
Would you kindly share the measured pKi for CSc1sc(C(=N)N)cc1S(=O)(=O)c1cccc(-c2cccc3c2oc2ccccc23)c1 [Example 66] ?
7.64 to 8.22

Name the recorded pKi for COc1cc(C)c(-c2cccc(S(=O)(=O)c3cc(C(=N)N)sc3SC)c2)c(COCC(=O)O)c1 [Example 192, trifluoroacetate] .
7.64 to 8.22

// lookup pKi for CSc1sc(C(=N)N)cc1S(=O)(=O)c1cccc(-c2ccccc2C(F)(F)F)c1 [Example 67]
7.64 to 8.22

Find the recorded pKi belonging to CSc1sc(C(=N)N)cc1S(=O)(=O)c1cccc(-c2ccc3[nH]cnc3c2)c1 [Example 106] and report it.
7.64 to 8.22

Could you tell me which pKi is on file for CSc1sc(C(=N)N)cc1S(=O)(=O)c1cccc(-c2ccc(F)cc2)c1 [Example 81] ?
7.64 to 8.22

* * *

Biological target: Activated human C1s (Homo sapiens, UniProt P09871)
Sequence (P09871 438-688 limits assumed): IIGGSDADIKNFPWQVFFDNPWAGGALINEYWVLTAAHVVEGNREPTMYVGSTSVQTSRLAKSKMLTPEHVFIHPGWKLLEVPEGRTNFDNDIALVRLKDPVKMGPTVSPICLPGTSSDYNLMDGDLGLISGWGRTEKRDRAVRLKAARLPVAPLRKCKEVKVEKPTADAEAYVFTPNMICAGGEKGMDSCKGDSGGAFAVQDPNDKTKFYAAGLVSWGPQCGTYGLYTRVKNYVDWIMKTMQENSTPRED
Sequence (P09871 16-437 partner limits assumed): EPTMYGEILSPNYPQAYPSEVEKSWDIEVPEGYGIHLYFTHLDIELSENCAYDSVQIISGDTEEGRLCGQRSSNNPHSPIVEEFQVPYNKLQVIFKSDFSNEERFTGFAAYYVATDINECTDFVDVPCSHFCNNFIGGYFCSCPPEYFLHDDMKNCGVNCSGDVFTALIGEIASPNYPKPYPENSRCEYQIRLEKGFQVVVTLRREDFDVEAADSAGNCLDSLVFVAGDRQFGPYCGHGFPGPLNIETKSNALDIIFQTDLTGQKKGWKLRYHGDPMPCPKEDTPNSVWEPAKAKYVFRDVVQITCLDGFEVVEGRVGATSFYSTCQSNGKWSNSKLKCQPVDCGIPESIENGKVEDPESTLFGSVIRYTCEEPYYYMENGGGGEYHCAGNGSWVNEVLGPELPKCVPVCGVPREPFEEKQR
Assay: In vitro inhibition of C1s (Ki determination, C1s-catalyzed hydrolysis of Z-Gly-Arg-S-Bzl, DTNB readout)
Conditions: substrate Z-Gly-Arg-S-Bzl 45 μM, DTNB 200 μM, C1s 2.3 nM, pH 7.5, 37° C., absorbance at 405 nm
pKi: −log10 of the molar value. Structures can show the parent of a compound that is named as a salt.
experimental readout: pKi

Lab note: need pKi for CSc1sc(C(=N)N)cc1S(=O)(=O)c1cccc(-c2c(C)cccc2C(=O)O)c1 [Example 4, trifluoroacetate] on Activated human C1s (Homo sapiens, UniProt P09871), anyone have it?
7.64 to 8.22

Give the reported pKi for CSc1sc(C(=N)N)cc1S(=O)(=O)c1cccc(-c2cc(C=O)ccc2C)c1 [Example 8, trifluoroacetate] (system: Activated human C1s (Homo sapiens, UniProt P09871)).
7.64 to 8.22

Continuing:
Identify the measured pKi of CSc1sc(C(=N)N)cc1S(=O)(=O)c1cccc(-c2c(C)cc(NC(=N)N)cc2NC(=O)CCCS(C)(=O)=O)c1 [Example 260, bis-trifluoroacetate] for Activated human C1s (Homo sapiens, UniProt P09871).
7.64 to 8.22

* * *

Target: Activated human C1s (Homo sapiens)
Construct: purchased Calbiochem (La Jolla, Calif.)
Experiment: In vitro inhibition of C1s (Ki determination, C1s-catalyzed hydrolysis of Z-Gly-Arg-S-Bzl, DTNB readout)
Assay type: biochemical
Conditions: substrate Z-Gly-Arg-S-Bzl 45 μM, DTNB 200 μM, C1s 2.3 nM, pH 7.5, 37° C., absorbance at 405 nm
Counter-ions that a name gives are not always drawn.
experimental readout: Ki

Returns the measured Ki for the input compound. Input: CSc1sc(C(=N)N)cc1S(=O)(=O)c1cccc(-c2ccc(C)cc2)c1 [Example 52]
6 to 23 nM

May I ask what Ki has been recorded for CSc1sc(C(=N)N)cc1S(=O)(=O)c1cccc(-c2c(C)cc(Cl)cc2NC(=O)CCCS(C)(=O)=O)c1 [Example 135, trifluoroacetate] ?
6 to 23 nM

Quick check: Ki of CSc1sc(C(=N)N)cc1S(=O)(=O)c1cccc(-c2cc3[nH]cnc3cc2C)c1 [Example 30, bis-trifluoroacetate] ?
6 to 23 nM

Which Ki value is on record for CSc1sc(C(=N)N)cc1S(=O)(=O)c1cccc(-c2ccc(-c3ccccc3)c(F)c2)c1 [Example 82] ?
6 to 23 nM

I'd like to know its Ki. The compound in question is CSc1sc(C(=N)N)cc1S(=O)(=O)c1cccc(-c2c(C)cccc2NC(=O)CCCS(N)(=O)=O)c1 [Example 210, trifluoroacetate]
6 to 23 nM

Would you mind telling me what Ki value was observed for CSc1sc(C(=N)N)cc1S(=O)(=O)c1cc(O)cc(-c2ccccc2Cl)c1 [Example 18, trifluoroacetate] ?
6 to 23 nM

Name the reported Ki value associated with the compound CSc1sc(C(=N)N)cc1S(=O)(=O)c1cccc(-c2c(C)cc(NC(=O)NCCCS(C)(=O)=O)cc2NC(=O)NCCCS(C)(=O)=O)c1 [Example 294]
6 to 23 nM

* * *

Molecular target: Activated human C1s (Homo sapiens)
Assay: In vitro inhibition of C1s (Ki determination, C1s-catalyzed hydrolysis of Z-Gly-Arg-S-Bzl, DTNB readout)
Conditions: substrate Z-Gly-Arg-S-Bzl 45 μM, DTNB 200 μM, C1s 2.3 nM, pH 7.5, 37° C., absorbance at 405 nm
pKi: −log10 of the molar value. Structures can show the parent of a compound that is named as a salt.
experimental readout: pKi

Worked examples follow.
Given the entry CSc1sc(C(=N)N)cc1S(=O)(=O)c1cccc(-c2ccc(NC(=N)NCCC(C)C)cc2C)c1 [Example 282, bistrifluoroacetate] , what pKi was observed with Activated human C1s (Homo sapiens)?
7.64 to 8.22

Recall the recorded pKi for CCCCCCNC(=N)Nc1ccc(-c2cccc(S(=O)(=O)c3cc(C(=N)N)sc3SC)c2)c(C)c1 [Example 136, trifluoroacetate] with Activated human C1s (Homo sapiens) and state it.
7.64 to 8.22

Form entry - test system: Activated human C1s (Homo sapiens); read-out: pKi; compound: CSc1sc(C(=N)N)cc1S(=O)(=O)c1cccc(-c2cccc(C(=O)N(C)C)c2)c1 [Example 103]
7.64 to 8.22

// fetch Activated human C1s (Homo sapiens) pKi for CSc1sc(C(=N)N)cc1S(=O)(=O)c1cccc(-c2ccccc2CO)c1 [Example 68]
7.64 to 8.22

Test system Activated human C1s (Homo sapiens); read-out pKi; what value for CSc1sc(C(=N)N)cc1S(=O)(=O)c1cnc(Cl)c(Br)c1 [Example 118] ?
7.64 to 8.22

Further cases:
Tell me reported pKi for CSc1sc(C(=N)N)cc1S(=O)(=O)c1cccc(-c2cccc(C(C)C)c2)c1 [Example 98] , tested with Activated human C1s (Homo sapiens).
7.64 to 8.22

Which measured pKi belongs to CSc1sc(C(=N)N)cc1S(=O)(=O)c1cccc(-c2c(C)cc(NC(=N)N)cc2NC(=O)CSCCC(=O)O)c1 [Example 239, bis-trifluoroacetate] , tested on Activated human C1s (Homo sapiens)?
7.64 to 8.22

Measured values drawn from patent US7109354B2 for this set.
